# System: Pancreatin
# TEST_DESCRIPTION: Protease stability in simulated intestinal fluid (Pancreatin-SIF, FaSSIF)
# Type: in vitro ADME
# CONDITION_CONTEXT: 240 min, 1 μM peptide, 37° C., read-out: FaSSIF 240 (min), remaining percent of peptide
# Protocol: Studies were carried out in simulated intestinal fluid (SIF) and simulated gastric fluid (SGF) to evaluate gastric stability of the peptide compounds disclosed herein. […] To 76 μL of the Pepsin-SGF buffer, 4 μL of the 20 µM peptide stock solution was added and incubated at 37° C. […] The samples were centrifuged for 20 minutes and an aliquot of the supernatant 100 μL were transferred to a LoBind-MTP plate and analyzed by LCMS/MS. […]
Starred links: 1 amine or outer side, 2 acyl side, 3 side chain; linkers in the order of their positions; H or OH if unused. Positions of bridges follow the written chain, without caps; N, C: chain ends. Non-standard residues stand in square brackets, D forms with d. Residues, ends and D or L forms follow the SMILES beside them. *: point of attachment. X1 = O=C(CCCCN[*:3])N[C@@H](CS[*:2])C(=O)[*:1]; Trp(1-Me) = Cn1cc(C[C@H](N)C(=O)O)c2ccccc21; 2Nal = N[C@@H](Cc1ccc2ccccc2c1)C(=O)O; 3Pal = N[C@@H](Cc1cccnc1)C(=O)O; Thp = NC1(C(=O)O)CCOCC1; Me2NCH2CH2 = CN(C)CC*; Aib = CC(C)(N)C(=O)O; Sar = CNCC(=O)O
QUANTITY_MEASURED: remaining at 4 h, 1 µM (%)
Output spec: scalar in %, unitless text.

CC(=O)N[C@H]1CCCCNC(=O)[C@@H]2CSSC[C@H](NC(=O)[C@H](CCC(N)=O)NC(=O)[C@H](Cc3c[nH]c4ccccc34)NC1=O)C(=O)N[C@@H](Cc1ccc(OCCN(C)C)cc1)C(=O)N[C@@H](Cc1ccc3ccccc3c1)C(=O)NC(C)(C)C(=O)N[C@H](C(=O)N[C@@H](CC(N)=O)C(=O)NCC(N)=O)CCC(=O)NCCCCC(=O)N2 [compound 29] (Ac-KWQCY(Me2NCH2CH2)[2Nal][Aib]ENG-NH2; linker 1-4-8 via X1)	47

Next compound, remaining at 4 h, 1 µM to be filled in.
### Prompt Any idea what its remaining at 4 h, 1 µM is? The compound is CC(=O)NCCCC[C@@H]1NC(=O)[C@H](Cc2cn(C)c3ccccc23)NC(=O)[C@@H](NC(C)=O)CCCCNC(=O)[C@@H]2CSSC[C@H](NC1=O)C(=O)N[C@@H](Cc1ccc(OCCN(C)C)cc1)C(=O)N[C@@H](Cc1ccc3ccccc3c1)C(=O)NC1(CCOCC1)C(=O)N[C@H](C(=O)N[C@@H](CC(N)=O)C(=O)N[C@@H](Cc1cccnc1)C(=O)N(C)CC(N)=O)CCC(=O)NCCCCC(=O)N2 [compound 126] (Ac-K[Trp(1-Me)]K(Ac)CY(Me2NCH2CH2)[2Nal][Thp]EN[3Pal][Sar]-NH2; linker 1-4-8 via X1)
### Response 83
